Property: kon; scope: individual binders
ASSAY_SYSTEM: T1, Human IL-11 (human, UniProt P20809 22-199)
T1 construct: Recombinant human IL-11 (GenScript Cat. No. Z03108-1) or IL-11 secreted by human cells; the mature form is said to have 178 residues; also called recombinant human IL-11; endogenously produced IL-11
T1 sequence: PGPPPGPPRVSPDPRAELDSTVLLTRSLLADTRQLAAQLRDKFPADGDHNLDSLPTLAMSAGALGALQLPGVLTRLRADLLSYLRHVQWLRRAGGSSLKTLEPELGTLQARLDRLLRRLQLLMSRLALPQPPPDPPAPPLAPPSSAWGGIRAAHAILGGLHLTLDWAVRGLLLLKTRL
ASSAY_INFO: SPR, Single Cycle Kinetics, BIAcore T200; human IL-11 immobilised on CM5 chip, antibody in IgG1 format as analyte, 1:1 model
PROPERTY: kon (M⁻¹ s⁻¹)

binder="01A (antibody, IgG1, V domains shown, C91A variant of the YU100-H01 VL) VH: QVQLVQSGGGVVQPGRSLRLSCAASGFTFSSYAMHWVRQAPGKGLEWVAVISYDGSNKYYADSVKGRFTISRDNSKNTLYLQMNSLRAEDTAVYYCARIMGYDYGDYDVVDYWGQGTLVTVSS VL: QSALTQPRSVSGSPGQSVTISCTGTSSDVGAYNYVSWYQQHPGKAPKLMIYDVSERPSGVPDRFSGSKSGNTASLTISGLQAEDEADYYCASYAGSYTWVFGGGTKLTVLG" result=12900
binder="01T (antibody, IgG1, V domains shown, C91T variant of the YU100-H01 VL) VH: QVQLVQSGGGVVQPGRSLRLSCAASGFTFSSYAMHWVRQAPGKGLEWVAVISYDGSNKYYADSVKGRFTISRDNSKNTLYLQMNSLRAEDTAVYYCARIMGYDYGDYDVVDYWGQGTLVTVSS VL: QSALTQPRSVSGSPGQSVTISCTGTSSDVGAYNYVSWYQQHPGKAPKLMIYDVSERPSGVPDRFSGSKSGNTASLTISGLQAEDEADYYCTSYAGSYTWVFGGGTKLTVLG" result=742000
binder="01Q (antibody, IgG1, V domains shown, C91Q variant of the YU100-H01 VL) VH: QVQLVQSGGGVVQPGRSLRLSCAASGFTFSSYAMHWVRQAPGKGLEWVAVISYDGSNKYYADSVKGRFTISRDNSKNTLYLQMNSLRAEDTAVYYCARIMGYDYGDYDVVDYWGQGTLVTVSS VL: QSALTQPRSVSGSPGQSVTISCTGTSSDVGAYNYVSWYQQHPGKAPKLMIYDVSERPSGVPDRFSGSKSGNTASLTISGLQAEDEADYYCQSYAGSYTWVFGGGTKLTVLG" result=9290
binder="01L (antibody, IgG1, V domains shown, C91L variant of the YU100-H01 VL) VH: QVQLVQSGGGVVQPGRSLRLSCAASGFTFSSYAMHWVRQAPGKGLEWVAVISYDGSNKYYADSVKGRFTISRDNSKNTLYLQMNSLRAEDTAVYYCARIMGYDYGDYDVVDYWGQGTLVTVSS VL: QSALTQPRSVSGSPGQSVTISCTGTSSDVGAYNYVSWYQQHPGKAPKLMIYDVSERPSGVPDRFSGSKSGNTASLTISGLQAEDEADYYCLSYAGSYTWVFGGGTKLTVLG" result=15700
